# pEC50 per record follows
system: Trypanosoma cruzi amastigotes (Tulahuen strain expressing Lac-Z) cultured in 3T3 fibroblast cells; assay: microbe, parasite or virus in culture; type: cell-based; conditions: Trypanosoma cruzi, TULAHUEN, Fibroblast, T. cruzi amastigotes in 3T3 fibroblast cells; read-out: T cruzi EC50
Scale explanation: pEC50 corresponds to minus log10 of a concentration expressed in moles per litre.

Use these answered entries as a reference point.
Molecule: O=C(Nc1ccc(F)c(-c2cn3cc(C4CC4)cnc3n2)c1)C1COCCO1 (stereo not shown)
pEC50: 5.76
//
Molecule: CC(C)(C)OC(=O)N1CCOCC1C(=O)Nc1ccc(F)c(-c2cn3cc(C4CC4)cnc3n2)c1 (stereo not shown)
pEC50: 5.23
//
Molecule: Cc1nc(C)c(C(=O)Nc2ccc(F)c(-c3cn4cc(C(C)c5ccccc5)cnc4n3)c2)o1 (stereo not shown)
pEC50: 6.51

Query :: Using known records, supply pEC50 for Cc1nc(C)c(C(=O)Nc2ccc(F)c(-c3cn4cc(-c5cn(C(C)C)cn5)cnc4n3)c2)o1
Result :: 6.35

Query :: Answer with the recorded pEC50 of Cc1nc(C)c(C(=O)Nc2ccc(F)c(-c3cn4cc(-c5cnccc5C)cnc4n3)c2)o1 only.
Result :: 7.32

Query :: Input CCN(CC)c1cnc2nc(-c3cc(NC(=O)c4oc(C)nc4C)ccc3F)cn2c1 , output reported pEC50.
Result :: 6.83

Query :: Quote pEC50 reported for COCN(C(=O)OC(C)C)c1cnc2nc(-c3cc(NC(=O)c4oc(C)nc4C)ccc3F)cn2c1 please.
Result :: 5.82

Query :: Give the reported pEC50 for this molecule. Cc1nc(C)c(C(=O)Nc2ccc(F)c(-c3cn4cc(N(C)C)cnc4n3)c2)o1
Result :: 6.83

###

tested on: L. donovani HU3 strain in mouse peritoneal macrophages; test: Assay for proliferation of Leishmania parasites in infected mouse peritoneal macrophages (SybrGreen staining, high-content imaging, 5 days); assay type: cell-based, Leishmania donovani; conditions: Leishmania donovani, Peritoneal macrophage, L. donovani in mouse peritoneal macrophages, inhibition of proliferation; read-out: L. donovani Macrophage EC50
Label TRUE when EC50 is strictly below 3 µM; at or above that, label FALSE.

Use the examples below as a reference point.
Molecular string: CN(C)C(=O)Nc1ccc(F)c(-c2cn3cc(C(F)(F)F)cnc3n2)c1
Answer label: TRUE

Molecular string: CC(C)OC(=O)Nc1cnc2nc(-c3cc(NC(=O)c4ccc[nH]4)ccc3F)cn2c1
Answer label: FALSE

Molecular string: Cc1csc(C(=O)Nc2cnc3nc(-c4cc(NC(=O)c5oc(C)nc5C)ccc4F)cn3c2)n1
Answer label: TRUE

Molecular string: CC(C)OC(=O)Nc1cnc2nc(-c3cc(NC(=O)N4CCN(C)CC4)ccc3Cl)cn2c1
Answer label: FALSE

Molecular string: Cc1ccc(C(=O)Nc2cccc(-c3cn4cc(NC(=O)OC(C)C)cnc4n3)c2)o1
Answer label: TRUE

Query :: Consider the compound CC(C)OC(=O)Nc1cnc2nc(-c3cc(NC(=O)N4CC(S(C)(=O)=O)C4)ccc3F)cn2c1 . Is its EC50 strictly less than 3 µM?
Result :: FALSE

Query :: For this compound, is EC50 lower than 3 µM? COCC(=O)Nc1ccc(F)c(-c2cn3cc(NC(=O)OC(C)C)cnc3n2)c1
Result :: FALSE

Query :: Record CC(C)OC(=O)Nc1cnc2nc(-c3cc(NC(=O)c4ccc(Br)s4)ccc3F)cn2c1 : is its EC50 strictly below 3 µM?
Result :: FALSE

###

system: Trypanosoma cruzi amastigotes (Tulahuen strain expressing Lac-Z) cultured in 3T3 fibroblast cells; assay: microbe, parasite or virus in culture; type: cell-based; settings: Trypanosoma cruzi, TULAHUEN, Fibroblast, T. cruzi amastigotes in 3T3 fibroblast cells; read-out: T cruzi EC50
Parameter EC50: see the listing below.
Answer format: numeric, µM implied, no suffix.

Compound: Cc1nc(C)c(C(=O)Nc2ccc(F)c(-c3cn4cc(NC5=NCC(C)(C)O5)cnc4n3)c2)o1
Measurement units: µM
EC50: 9.92

Compound: Cc1nc(C)c(C(=O)Nc2ccc(F)c(-c3cn4cc(-c5cnc(C(C)C)cn5)cnc4n3)c2)o1
Measurement units: µM
EC50: 0.122

Compound: Cc1nc(C)c(C(=O)Nc2ccc(F)c(-c3cn4cc(-c5ccnn5C)cnc4n3)c2)o1
Measurement units: µM
EC50: 0.149

Compound: Cc1nc(C)c(C(=O)Nc2ccc(F)c(-c3cn4cc(-c5cccc(N6CCNCC6)n5)cnc4n3)c2)o1
Measurement units: µM
EC50: 0.394

Query :: Fill in reported EC50 for this entry: Cc1ncc(C(=O)Nc2ccc(F)c(-c3cn4cc(N(C)C)cnc4n3)c2)o1
Result :: 0.129

Query :: Note down EC50 recorded for O=C(Nc1ccc(Cl)c(-c2cn3cc(-c4ccc(OC5CCNCC5)cc4)cnc3n2)c1)N1CCCC1
Result :: 0.436

Query :: Indicate the recorded EC50 value for this compound: CC1(O)CN(c2cnc3nc(-c4cc(NC(=O)N5CCCC5)ccc4Cl)cn3c2)C1
Result :: 6.71

Query :: For O=C1CCC(C(=O)Nc2ccc(F)c(-c3cn4cc(C5CC5)cnc4n3)c2)C1 (stereo not shown) , write its EC50.
Result :: 3.93

Query :: Report measured EC50; entry is Cc1nc(C)c(C(=O)Nc2ccc(F)c(-c3cn4cc(-c5ccc(N6CCOCC6)cc5)cnc4n3)c2)o1
Result :: 0.137

###

tested on: Trypanosoma brucei Lister 427 strain, bloodstream form; assay: Assay for proliferation of kinetoplastid parasite Trypanosoma brucei (Cell Titer Glo, 48 hours); assay type: cell-based; settings: Trypanosoma brucei, T. brucei Lister 427 bloodstream form; read-out: T. brucei EC50
The following molecules are shown together with reported pEC50 values.
Quick note: pEC50 means taking -log10 of the concentration in moles per liter.

Reference set (10 entries):
Molecular string: Cc1cnc(F)c(-c2cnc3nc(-c4cc(NC(=O)c5oc(C)nc5C)ccc4F)cn3c2)c1
Tgt: Trypanosoma brucei Lister 427 strain, bloodstream form
pEC50: 6.92

Molecular string: Cc1nc(C)c(C(=O)Nc2ccc(F)c(-c3cn4cc(C#CCCO)cnc4n3)c2)o1
Tgt: Trypanosoma brucei Lister 427 strain, bloodstream form
pEC50: 6.87

Molecular string: Cc1nc(C)c(C(=O)Nc2ccc(F)c(-c3cn4cc(OCC5CC5)cnc4n3)c2)o1
Tgt: Trypanosoma brucei Lister 427 strain, bloodstream form
pEC50: 6.82

Molecular string: O=C(Nc1ccc(F)c(-c2cn3cc(C4CC4)cnc3n2)c1)N1CC(F)(F)C1
Tgt: Trypanosoma brucei Lister 427 strain, bloodstream form
pEC50: 7.29

Molecular string: CCNc1cnc2nc(-c3cc(NC(=O)c4oc(C)nc4C)ccc3F)cn2c1
Tgt: Trypanosoma brucei Lister 427 strain, bloodstream form
pEC50: 6.32

Molecular string: CC(C)OC(=O)Nc1cnc2nc(-c3cc(NC4=NCC(C)(C)O4)ccc3F)cn2c1
Tgt: Trypanosoma brucei Lister 427 strain, bloodstream form
pEC50: 4.44

Molecular string: O=C(Nc1ccc(F)c(-c2cn3cc(C4CC4)cnc3n2)c1)N1CC[C@@H](F)C1
Tgt: Trypanosoma brucei Lister 427 strain, bloodstream form
pEC50: 7.89

Molecular string: Cc1nc(C)c(C(=O)Nc2ccc(F)c(-c3cn4cc(-c5ccc(N6CCN(C(C)C)CC6)cc5)cnc4n3)c2)o1
Tgt: Trypanosoma brucei Lister 427 strain, bloodstream form
pEC50: 5.58

Molecular string: CCN(C)C(=O)Nc1ccc(F)c(-c2cn3cc(-c4ccccn4)cnc3n2)c1
Tgt: Trypanosoma brucei Lister 427 strain, bloodstream form
pEC50: 6.32

Molecular string: Cc1nc(C)c(C(=O)Nc2ccc(F)c(-c3cn4cc(-c5nccn5C)cnc4n3)c2)o1
Tgt: Trypanosoma brucei Lister 427 strain, bloodstream form
pEC50: 6.79

Query :: Quick one: give measured pEC50 for CC(C)OC(=O)Nc1cnc2nc(-c3cc(Nc4nccc5ccoc45)ccc3F)cn2c1
Result :: 6.30

Query :: Return the recorded pEC50 value; entry: CCN(CC)c1cnc2nc(-c3cc(NC(=O)c4oc(C)nc4C)ccc3F)cn2c1
Result :: 6.80

Query :: Dear colleague, please send me the reported pEC50 for Cc1nc(C)c(C(=O)Nc2ccc(F)c(-c3cn4cc(NC5CC5)cnc4n3)c2)o1 when you can.
Result :: 6.00

Query :: Answer with the recorded pEC50 of Cc1nc(C)c(C(=O)Nc2ccc(F)c(-c3cn4cc(N(C)C(C)C)cnc4n3)c2)o1 only.
Result :: 7.15

###

tested on: Trypanosoma brucei Lister 427 strain, bloodstream form; assay: Assay for proliferation of kinetoplastid parasite Trypanosoma brucei (Cell Titer Glo, 48 hours); assay type: cell-based; settings: Trypanosoma brucei, T. brucei Lister 427 bloodstream form; read-out: T. brucei EC50
Use EC50 to assign classes; range list: low = under 200 nM, intermediate = from 200 nM up to 1000 nM, high = 1000 nM and over

Query :: Using the reported EC50, which band applies to Cc1nc(C)c(C(=O)Nc2ccc(F)c(-c3cn4cc(-c5cn(C(C)C)cn5)cnc4n3)c2)o1 ?
Result :: low

Query :: Hello team, could you let me know which band the following compound falls into: Cc1nc(C)c(C(=O)Nc2ccc(F)c(-c3cn4cc(N(C)C)cnc4n3)c2)o1
Result :: low

Query :: Determine which band this compound sits in: O=C(Nc1cnc2nc(-c3ccc(F)c(NC(=O)N4CCCC4)c3)cn2c1)OCc1ccccc1
Result :: intermediate

Query :: In plain terms, what class is CC(C)OC(=O)Nc1cnc2nc(-c3cc(-n4cn[nH]c4=O)ccc3Cl)cn2c1 ?
Result :: high

Query :: Sort COC(=O)COc1cnc2nc(-c3cc(NC(=O)c4oc(C)nc4C)ccc3F)cn2c1 into one of the categories.
Result :: high

Query :: Bin? O=C(Nc1ccc(F)c(-c2cn3cc(OCCN4CCOCC4)cnc3n2)c1)N1CCCC1
Result :: high

Query :: Where would COc1cccnc1Nc1ccc(F)c(-c2cn3cc(NC(=O)OC(C)C)cnc3n2)c1 land among the classes by reported EC50?
Result :: intermediate

Query :: Using the reported EC50, which band applies to CC(=O)c1ccc(-c2cnc3nc(-c4cc(NC(=O)c5oc(C)nc5C)ccc4F)cn3c2)cn1 ?
Result :: intermediate

Query :: For this compound, which bin applies? CC(C)OC(=O)Nc1cnc2nc(-c3cc(NC4=NCCO4)ccc3F)cn2c1
Result :: high

Query :: Looking at O=C(Nc1ccc(F)c(-c2cn3cc(-c4ccccc4)cnc3n2)c1)N1CC[C@@H](F)C1 , which class would you pick?
Result :: low

Query :: Assign a category based on measured EC50 for CNc1ccc(-c2cnc3nc(-c4cc(NC(=O)c5oc(C)nc5C)ccc4F)cn3c2)cc1 and give only the class name.
Result :: low

Query :: Category of O=C1CCC(C(=O)Nc2ccc(F)c(-c3cn4cc(C5CC5)cnc4n3)c2)C1 (centres unmarked) , please.
Result :: high

Query :: Hello team, could you let me know which band the following compound falls into: CN(C)c1cnc2nc(-c3cc(NC(=O)N4CCC4)ccc3F)cn2c1
Result :: low

Query :: Using the reported EC50, which band applies to Cc1nc(C)c(C(=O)Nc2ccc(F)c(-c3cn4cc(CC(F)(F)F)cnc4n3)c2)o1 ?
Result :: low

Query :: Form: Item = CC1COC(Nc2ccc(F)c(-c3cn4cc(NC(=O)OC(C)C)cnc4n3)c2)=N1 (centres unmarked) ; Class = ?
Result :: high

Query :: Please report the category associated with CC(C)OC(=O)Nc1ccc(F)c(-c2cn3cc(-c4cccnc4)cnc3n2)c1 , nothing else.
Result :: low

Query :: Form field 'band' for O=C(Nc1ccc(F)c(-c2cn3cc(C4CC4)cnc3n2)c1)C1COCCO1 (centres unmarked)
Result :: high
